- Species on record: Rattus norvegicus
- procedureDetails: Selectivity index, ratio of IC50 for rat serum BuChE to IC50 for rat cortex AChE
assayEndpoint: Ratio IC50

Consider the worked cases shown below.
| moleculeSmiles | Ratio IC50 |
| --- | --- |
| COc1ccccc1CN(C)CCCOc1ccc(-c2cc(=O)c3c(O)c(OC)c(OC)cc3o2)cc1 | > 100 |
| COc1cc2oc(-c3cccc(OCCN4CCN(Cc5ccccc5)CC4)c3)cc(=O)c2c(OC)c1OC | > 424 |
| COc1ccccc1CN(C)CCCCOc1cccc(-c2cc(=O)c3c(O)c(OC)c(OC)cc3o2)c1 | > 64.7 |

INPUT: Please report the recorded Ratio IC50 for CCN(CCCCOc1cccc(-c2cc(=O)c3c(O)c(OC)c(OC)cc3o2)c1)Cc1ccccc1OC .
OUTPUT: > 208
